# CONDITION DETAILS: in water, 308.15 K
QUANTITY KIND: solubility (mole fraction)
Reply briefly: the number, and no unit.

Kindly note the recorded solubility (mole fraction) for `CO/N=C1\C[C@]2(C[C@@H]3C[C@@H](C/C=C(\C)C[C@@H](C)/C=C/C=C4\CO[C@@H]5[C@H](O)C(C)=C[C@@H](C(=O)O3)[C@]45O)O2)O[C@H](/C(C)=C/C(C)C)[C@H]1C` , which is 1.59e-05

====

# CONDITION DETAILS: in methanol, 308.15 K
QUANTITY KIND: solubility (mole fraction)
Reply briefly: the number, and no unit.

Kindly note the recorded solubility (mole fraction) for `CO/N=C1\C[C@]2(C[C@@H]3C[C@@H](C/C=C(\C)C[C@@H](C)/C=C/C=C4\CO[C@@H]5[C@H](O)C(C)=C[C@@H](C(=O)O3)[C@]45O)O2)O[C@H](/C(C)=C/C(C)C)[C@H]1C` , which is 0.0729
